// data source = ChEMBL document CHEMBL3045943

Test system: Photobacterium leiognathi
Assay: Growth inhibition of Photobacterium leiognathi Sh1 assessed as bio-luminescence at 0.25 mg/ml after 16 to 18 hr by chronic action test relative to control
Type: functional
Design: scale not given: the % may be the effect or the level left
reported metric: Activity (%)
Field: numeric (%). Do not append units.

COc1ccc(-c2nn3c(SCC(=O)Nc4ccccc4F)nc4ccccc4c3nc2=O)cc1 100

Lab note: Cc1nn2c(SCC(=O)Nc3ccccc3C(F)(F)F)nc3ccccc3c2nc1=O gave Activity of 97.14

====

Collected Activity values appear next to each entry.
Test system: Photobacterium leiognathi
Assay: Growth inhibition of Photobacterium leiognathi Sh1 assessed as bio-luminescence at 0.25 mg/ml after 16 to 18 hr by chronic action test relative to control
Type: functional
Parameters: scale not given: the % may be the effect or the level left
Field: numeric (%). Do not append units.

molecule	measured target	reported metric	data value
O=C(CSc1nc2ccccc2c2nc(=O)c(-c3ccccc3)nn12)NCc1ccccc1Cl	Photobacterium leiognathi	Activity	110
O=C(CSc1nc2ccccc2c2nc(=O)c(-c3ccccc3)nn12)NCc1ccc(F)cc1	Photobacterium leiognathi	Activity	166.7
CN(C)[C@@H]1C(O)=C(C(N)=O)C(=O)[C@@]2(O)C(O)=C3C(=O)c4c(O)cccc4[C@@](C)(O)[C@H]3C[C@@H]12 [TETRACYCLINE]	Photobacterium leiognathi	Activity	0

Value sought: Activity, system Photobacterium leiognathi, item COc1ccc(CNC(=O)CSc2nc3ccccc3c3nc(=O)c(-c4ccccc4)nn23)cc1 . Result: 40

Value sought: Activity, system Photobacterium leiognathi, item Cc1ccc(CNC(=O)CSc2nc3ccccc3c3nc(=O)c(C)nn23)cc1 . Result: 150

====

Test system: Photobacterium leiognathi
Experiment: Growth inhibition of Photobacterium leiognathi Sh1 assessed as bio-luminescence at 0.1 mg/ml after 16 to 18 hr by chronic action test relative to control
Format: functional
Set-up: scale not given: the % may be the effect or the level left
Collected Activity values appear next to each entry.
Numeric answer plus unit only.

Solved cases (6 shown):
compound	data value
O=C(CSc1nc2ccccc2c2nc(=O)c(-c3ccccc3)nn12)Nc1ccccc1	83.33%
Cc1nn2c(SCC(=O)NCc3ccccc3Cl)nc3ccccc3c2nc1=O	180.9%
Cc1ccc(-c2nn3c(SCC(=O)Nc4cccc(F)c4)nc4ccccc4c3nc2=O)cc1	32.93%
COc1ccccc1CNC(=O)CSc1nc2ccccc2c2nc(=O)c(-c3ccccc3)nn12	80%
O=C(CSc1nc2ccccc2c2nc(=O)c(-c3ccccc3)nn12)NCc1cccc(C(F)(F)F)c1	10.67%
O=C(CSc1nc2ccccc2c2nc(=O)c(-c3ccccc3)nn12)NCc1ccc(F)cc1	76.9%

Lab note: O=C(CSc1nc2ccccc2c2nc(=O)c(-c3ccccc3)nn12)Nc1cccc(Cl)c1 gave Activity of 100%

Lab note: CN(C)[C@@H]1C(O)=C(C(N)=O)C(=O)[C@@]2(O)C(O)=C3C(=O)c4c(O)cccc4[C@@](C)(O)[C@H]3C[C@@H]12 [TETRACYCLINE] gave Activity of 0%

Lab note: COc1ccc(-c2nn3c(SCC(=O)Nc4ccccc4C(F)(F)F)nc4ccccc4c3nc2=O)cc1 gave Activity of 200%

====

Experiment: Cytotoxicity against Homo sapiens (human) […] cells assessed as cell growth at 10 uM after 48 hr by SRB assay relative to control
Type: functional
Conditions: read-out: Activity
Collected growth at 10 µM values appear next to each entry.
Field: numeric (%). Do not append units.

O=C(CSc1nc2ccccc2c2nc(=O)c(-c3ccccc3)nn12)NCc1ccccc1 44.5
COc1ccc(-c2nn3c(SCC(=O)Nc4ccccc4C(F)(F)F)nc4ccccc4c3nc2=O)cc1 85.1
Cc1ccc(-c2nn3c(SCC(=O)Nc4ccccc4F)nc4ccccc4c3nc2=O)cc1 94.4

Shifting focus to the molecule that follows.
Lab note: COc1ccc(-c2nn3c(SCC(=O)Nc4ccccc4F)nc4ccccc4c3nc2=O)cc1 gave growth at 10 µM of 67.6

====

Tested on: Photobacterium leiognathi
Assay: Growth inhibition of Photobacterium leiognathi Sh1 assessed as bio-luminescence at 0.1 mg/ml after 16 to 18 hr by chronic action test relative to control
Assay type: functional
Design: scale not given: the % may be the effect or the level left
reported metric: Activity (%)
Field: numeric (%). Do not append units.

Solved cases (5 shown):
COc1ccc(-c2nn3c(SCC(=O)Nc4ccc(C)cc4)nc4ccccc4c3nc2=O)cc1 76.8
Cc1ccc(CNC(=O)CSc2nc3ccccc3c3nc(=O)c(-c4ccccc4)nn23)cc1 112
Cc1ccc(CNC(=O)CSc2nc3ccccc3c3nc(=O)c(C)nn23)cc1 212.8
Cc1ccc(-c2nn3c(SCC(=O)Nc4ccccc4[N+](=O)[O-])nc4ccccc4c3nc2=O)cc1 250
Cc1ccc(-c2nn3c(SCC(=O)Nc4ccccc4C)nc4ccccc4c3nc2=O)cc1 66.7

Shifting focus to the compound that follows.
Lab note: COc1ccc(-c2nn3c(SCC(=O)Nc4ccccc4C)nc4ccccc4c3nc2=O)cc1 gave Activity of 94.55

====

System: K562
Assay: Cytotoxicity against Homo sapiens (human) K562 cells assessed as cell growth at 10 uM after 48 hr by SRB assay relative to control
Type: functional
Conditions: K562, 48 h, read-out: Activity
Collected growth at 10 µM values appear next to each entry.
Field: numeric (%). Do not append units.

Solved cases (4 shown):
COc1ccc(-c2nn3c(SCC(=O)Nc4ccccc4F)nc4ccccc4c3nc2=O)cc1 60.2
O=C(CSc1nc2ccccc2c2nc(=O)c(-c3ccccc3)nn12)NCc1ccccc1 29.7
COc1ccc(-c2nn3c(SCC(=O)Nc4ccccc4Cl)nc4ccccc4c3nc2=O)cc1 26.9
Cc1nn2c(SCC(=O)NCc3ccccc3F)nc3ccccc3c2nc1=O 77.8

Lab note: Cc1ccc(-c2nn3c(SCC(=O)Nc4ccccc4F)nc4ccccc4c3nc2=O)cc1 gave growth at 10 µM of 77.5

Lab note: COc1ccccc1CNC(=O)CSc1nc2ccccc2c2nc(=O)c(-c3ccccc3)nn12 gave growth at 10 µM of 26.4

Lab note: Cc1nn2c(SCC(=O)Nc3cccc(Cl)c3)nc3ccccc3c2nc1=O gave growth at 10 µM of 57.2

====

Tested on: Photobacterium leiognathi
Assay: Growth inhibition of Photobacterium leiognathi Sh1 assessed as bio-luminescence at 0.25 mg/ml after 10 min by acute action test relative to control
Type: functional
Set-up: scale not given: the % may be the effect or the level left
Collected Activity values appear next to each entry.
Field: numeric (%). Do not append units.

Lab note: COc1ccc(-c2nn3c(SCC(=O)Nc4ccccc4Cl)nc4ccccc4c3nc2=O)cc1 gave Activity of 75

Lab note: Cc1ccc(-c2nn3c(SCC(=O)Nc4cccc(C(F)(F)F)c4)nc4ccccc4c3nc2=O)cc1 gave Activity of 83.3

Lab note: COc1ccc(CNC(=O)CSc2nc3ccccc3c3nc(=O)c(-c4ccccc4)nn23)cc1 gave Activity of 138.7

Lab note: O=C(CSc1nc2ccccc2c2nc(=O)c(-c3ccccc3)nn12)NCc1ccccc1F gave Activity of 100

Lab note: COc1ccc(-c2nn3c(SCC(=O)Nc4ccc(C)cc4)nc4ccccc4c3nc2=O)cc1 gave Activity of 146.7

Lab note: O=C(CSc1nc2ccccc2c2nc(=O)c(-c3ccccc3)nn12)NCc1cccc(C(F)(F)F)c1 gave Activity of 17.78

Lab note: Cc1nn2c(SCC(=O)Nc3ccccc3)nc3ccccc3c2nc1=O gave Activity of 95.59

Lab note: COc1ccc(CNC(=O)CSc2nc3ccccc3c3nc(=O)c(C)nn23)cc1 gave Activity of 151.5

Lab note: Cc1ccc(-c2nn3c(SCC(=O)Nc4ccccc4[N+](=O)[O-])nc4ccccc4c3nc2=O)cc1 gave Activity of 62.5

====

Test system: CCRF-CEM
Assay: Cytotoxicity against Homo sapiens (human) CCRF-CEM cells assessed as cell growth at 10 uM after 48 hr by SRB assay relative to control
Type: functional
Details: read-out: Activity
reported metric: growth at 10 µM (%)
Field: numeric (%). Do not append units.

Solved cases (3 shown):
Cc1ccc(-c2nn3c(SCC(=O)Nc4ccccc4F)nc4ccccc4c3nc2=O)cc1 76.8
Cc1ccc(-c2nn3c(SCC(=O)Nc4ccccc4C)nc4ccccc4c3nc2=O)cc1 -49.6
COc1ccc(-c2nn3c(SCC(=O)Nc4ccccc4F)nc4ccccc4c3nc2=O)cc1 67.5

Shifting focus to the compound that follows.
Lab note: O=C(CSc1nc2ccccc2c2nc(=O)c(-c3ccccc3)nn12)NCc1ccccc1 gave growth at 10 µM of 37.9

====

System: HL-60(TB)
Assay: Cytotoxicity against Homo sapiens (human) HL-60(TB) cells assessed as cell growth at 10 uM after 48 hr by SRB assay relative to control
Format: functional
Conditions: HL-60, 48 h, read-out: Activity
reported metric: growth at 10 µM (%)
Field: numeric (%). Do not append units.

Solved cases (3 shown):
COc1ccc(-c2nn3c(SCC(=O)Nc4ccccc4Cl)nc4ccccc4c3nc2=O)cc1 38.6
O=C(CSc1nc2ccccc2c2nc(=O)c(-c3ccccc3)nn12)NCc1ccccc1 51.6
COc1ccc(-c2nn3c(SCC(=O)Nc4ccccc4F)nc4ccccc4c3nc2=O)cc1 67.9

Lab note: COc1ccccc1CNC(=O)CSc1nc2ccccc2c2nc(=O)c(-c3ccccc3)nn12 gave growth at 10 µM of 41.9

Lab note: Cc1ccc(-c2nn3c(SCC(=O)Nc4ccccc4F)nc4ccccc4c3nc2=O)cc1 gave growth at 10 µM of 84.4
